The reported measurements were obtained from ChEMBL document CHEMBL5385875.

System: A549
assay name: Cytotoxicity against human A549 cells assessed as reduction in cell viability incubated for 48 hrs by MTT assay
Type: functional, cell-based
conditions used: A549, 48 h
pIC50: −log10 of the molar value.
quantity measured: pIC50

Here are 2 molecules together with their reported answers.
>  <smiles entry>
COc1ccc(/C=C2\CN(C)C/C(=C\c3ccc(OC)cc3)C2=O)cc1

>  <pIC50>
< 4.00

$$$$
>  <smiles entry>
O=C1/C(=C/c2ccccc2C(F)(F)F)CCC/C1=C\c1ccccc1C(F)(F)F

>  <pIC50>
< 4.00

$$$$

# ---- query molecule ----
For the molecule shown here, COc1ccc(/C=C2\CCC/C(=C\c3ccc(OC)cc3)C2=O)cc1 , give the reported pIC50. < 4.00
